Biological target: T1, Fc protein
T1 construct: counter-screen antigen for the Fc moiety of PDL1-Fc
Test: ELISA, Fc protein coated, 100 ng dAb per well
PARAMETER MEASURED: OD (against Fc)

[
  {
    "BINDER": "PDL1-10 dAb (VHH, camel heavy chain single domain antibody expressed in E. coli, purified on nickel; also called antibody No. 10; not shown: His tag from expression vector PET32b) VHH: QVQLQESGGGSVQAGGSLRLSCAASGNIVSSYCMGWFRQAPGKERVGVAAIDSDGTTKYADSMKGRFTISKDNAKNTLDLQMNSLKPEDTAMYYCVARLNCPGPVDWVPMFPYRGQGTQVTVSS",
    "PARAMETER MEASURED": "OD (against Fc)",
    "MEAS VALUE": "0.099 OD (405 nm)"
  },
  {
    "BINDER": "PDL1-94 dAb (VHH, camel heavy chain single domain antibody expressed in E. coli, purified on nickel; also called antibody No. 94; not shown: His tag from expression vector PET32b) VHH: QVQLQESGGGSVQAGGSLRLSCAASLNIFSSYCMGWFRQAPGKQRVGVATIDSDGTTRYVDSVKGRFTISKDNAKNTLDLQMNSLKPEDTAMYYCAARLNCPGPVDWVPMFPYRGQGTQVTVSS",
    "PARAMETER MEASURED": "OD (against Fc)",
    "MEAS VALUE": "0.085 OD (405 nm)"
  },
  {
    "BINDER": "PDL1-81 dAb (VHH, camel heavy chain single domain antibody expressed in E. coli, purified on nickel; also called antibody No. 81; not shown: His tag from expression vector PET32b) VHH: QVQLQESGGGSVQAGGSLRLSCAASGNIIRVRCMAWFRQAPGKERERGPNILTTTISTYLADSVKGRFTISQNNAKSTVYLQMNSLKPEDTAMYYCAADSFGYPTCPGPASSGAFQYWGQGTQVTVSS",
    "PARAMETER MEASURED": "OD (against Fc)",
    "MEAS VALUE": "0.085 OD (405 nm)"
  }
]
